The measurements presented in this section are drawn from paper PMC7704495.

# system: CYP2C9 (Homo sapiens)
# Construct: purchased Corning (Woburn, USA); host or cells: baculovirus-infected insect cells
# assay_protocol: CYP2C9 inhibition, diclofenac 4′-hydroxylation in pooled human liver microsomes
# Type: in vitro ADME
# test_parameters: CYP2C9, liver microsomes, diclofenac 4′-hydroxylation
# Protocol: The following probe reactions were applied, according to the methods previously described: caffeine 3-N-demethylation for CYP1A2 (caffeine 200, 400 and 800 µM), diclofenac 4′-hydroxylation for CYP2C9 (diclofenac 5, 10, 25 µM), perazine N-demethylation for CYP2C19 (perazine 50, 100, 200 µM), bufuralol 1′-hydroxylation for CYP2D6 (bufuralol 10, 25, 50 µM), and testosterone 6β-hydroxylation for CYP3A4 (50, 100 and 200 µM). […]
quantity_kind: Ki
Respond with the figure and its unit, in that order.

Ask | Provide value of Ki for this record tested with CYP2C9 (Homo sapiens): O=C1[C@@H]2[C@H]3CC[C@H](C3)[C@@H]2C(=O)N1C[C@@H]1CCCC[C@H]1CN1CCN(c2nsc3ccccc23)CC1
Reply | 18 µM

###

Here, each record is paired with measured Ki data.
# system: CYP1A2 (Homo sapiens, UniProt P05177)
# Construct: purchased Corning (Woburn, USA); host or cells: baculovirus-infected insect cells
# Sequence (P05177 1-516): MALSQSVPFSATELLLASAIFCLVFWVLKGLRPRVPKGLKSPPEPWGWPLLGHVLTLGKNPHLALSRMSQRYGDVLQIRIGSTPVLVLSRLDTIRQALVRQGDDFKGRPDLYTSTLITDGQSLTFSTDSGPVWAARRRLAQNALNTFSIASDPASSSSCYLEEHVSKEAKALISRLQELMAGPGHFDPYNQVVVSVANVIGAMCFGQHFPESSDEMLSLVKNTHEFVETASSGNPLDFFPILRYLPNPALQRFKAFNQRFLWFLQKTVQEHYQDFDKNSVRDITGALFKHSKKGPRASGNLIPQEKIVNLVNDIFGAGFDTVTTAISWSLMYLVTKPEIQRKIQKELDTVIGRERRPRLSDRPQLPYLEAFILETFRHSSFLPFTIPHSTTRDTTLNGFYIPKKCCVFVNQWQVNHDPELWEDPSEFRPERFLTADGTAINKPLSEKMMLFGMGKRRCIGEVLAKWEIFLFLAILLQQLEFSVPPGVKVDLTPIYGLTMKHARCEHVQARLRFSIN
# assay_protocol: CYP1A2 inhibition, caffeine 3-N-demethylation in cDNA-expressed CYP1A2 (supersomes)
# Format: in vitro ADME
# test_parameters: caffeine 3-N-demethylation
Give the quantity in µM, number only.

O=C1[C@@H]2[C@H]3CC[C@H](C3)[C@@H]2C(=O)N1C[C@@H]1CCCC[C@H]1CN1CCN(c2nsc3ccccc23)CC1 = 15.5

# next molecule below
Ask | Value wanted: Ki (CYP1A2 (Homo sapiens, UniProt P05177)) of entry COc1cc(C(C)=O)ccc1OCCCN1CCC(c2noc3cc(F)ccc23)CC1
Reply | 31

###

# system: CYP1A2 (Homo sapiens)
# Construct: purchased Corning (Woburn, USA); host or cells: baculovirus-infected insect cells
# assay_protocol: CYP1A2 inhibition, caffeine 3-N-demethylation in pooled human liver microsomes
# Assay type: in vitro ADME
# test_parameters: caffeine 3-N-demethylation
quantity_kind: Ki (µM)
Give the number; µM is assumed, so skip it.

Ask | Any idea what its Ki is? The compound is O=C1[C@@H]2[C@H]3CC[C@H](C3)[C@@H]2C(=O)N1C[C@@H]1CCCC[C@H]1CN1CCN(c2nsc3ccccc23)CC1
Reply | 12.6

Ask | Same thing, different compound: COc1cc(C(C)=O)ccc1OCCCN1CCC(c2noc3cc(F)ccc23)CC1
Reply | 45

###

# system: UniProt:P33261
# Sequence (P33261 whole entry): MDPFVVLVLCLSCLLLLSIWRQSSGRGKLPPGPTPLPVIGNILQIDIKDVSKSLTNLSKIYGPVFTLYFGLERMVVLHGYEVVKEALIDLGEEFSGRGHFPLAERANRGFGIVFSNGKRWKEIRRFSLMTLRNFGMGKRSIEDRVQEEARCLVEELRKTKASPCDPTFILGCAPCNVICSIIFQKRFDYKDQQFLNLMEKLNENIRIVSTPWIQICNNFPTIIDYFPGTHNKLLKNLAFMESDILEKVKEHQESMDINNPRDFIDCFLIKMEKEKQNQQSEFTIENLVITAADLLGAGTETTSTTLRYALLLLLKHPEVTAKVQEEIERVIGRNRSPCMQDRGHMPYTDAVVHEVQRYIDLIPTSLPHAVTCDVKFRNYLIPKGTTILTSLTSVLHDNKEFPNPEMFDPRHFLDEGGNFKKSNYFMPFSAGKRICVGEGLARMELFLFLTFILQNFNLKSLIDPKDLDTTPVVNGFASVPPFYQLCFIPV
# assay_protocol: CYP2C19 inhibition, perazine N-demethylation in pooled human liver microsomes
# Type: in vitro ADME
# Set-up: a Human liver microsomes; tissue Corning (Woburn, USA); host or cells: pooled human liver microsomes
# test_parameters: perazine N-demethylation
quantity_kind: pKi
Please report pKi as the negative decimal logarithm of the molar concentration, giving only the number.

O=C1[C@@H]2[C@H]3CC[C@H](C3)[C@@H]2C(=O)N1C[C@@H]1CCCC[C@H]1CN1CCN(c2nsc3ccccc23)CC1 = 4.74

// moving on: another record for pKi
Ask | What value of pKi has been recorded for this entry: COc1cc(C(C)=O)ccc1OCCCN1CCC(c2noc3cc(F)ccc23)CC1
Reply | 5.19

###

# system: CYP3A4 (Homo sapiens, UniProt P08684)
# Sequence (P08684 whole entry): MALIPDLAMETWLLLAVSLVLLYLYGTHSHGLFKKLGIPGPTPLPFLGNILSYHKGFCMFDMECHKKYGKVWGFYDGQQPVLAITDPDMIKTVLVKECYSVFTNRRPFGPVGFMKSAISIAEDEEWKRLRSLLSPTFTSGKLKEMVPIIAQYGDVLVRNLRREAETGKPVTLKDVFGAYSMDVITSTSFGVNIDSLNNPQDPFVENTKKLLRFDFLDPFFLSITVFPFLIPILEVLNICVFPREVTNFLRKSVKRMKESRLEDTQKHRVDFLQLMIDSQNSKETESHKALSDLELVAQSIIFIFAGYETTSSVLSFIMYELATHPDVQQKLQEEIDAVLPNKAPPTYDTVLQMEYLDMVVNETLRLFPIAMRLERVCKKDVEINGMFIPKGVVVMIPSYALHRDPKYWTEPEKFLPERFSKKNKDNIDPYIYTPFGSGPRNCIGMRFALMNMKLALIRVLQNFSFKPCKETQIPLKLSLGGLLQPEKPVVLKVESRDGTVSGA
# assay_protocol: CYP3A4 inhibition, testosterone 6β-hydroxylation in cDNA-expressed CYP3A4 (supersomes)
quantity_kind: pKi
Field pKi (float): negative decimal logarithm of the concentration in molar.

Ask | API: value(readout=pKi, system=CYP3A4 (Homo sapiens, UniProt P08684)) for record O=C1[C@@H]2[C@H]3CC[C@H](C3)[C@@H]2C(=O)N1C[C@@H]1CCCC[C@H]1CN1CCN(c2nsc3ccccc23)CC1 [Lurasidone, lurasidone]
Reply | 5.04

###

# system: CYP2D6 (Homo sapiens, UniProt P10635)
# Sequence (P10635 whole entry): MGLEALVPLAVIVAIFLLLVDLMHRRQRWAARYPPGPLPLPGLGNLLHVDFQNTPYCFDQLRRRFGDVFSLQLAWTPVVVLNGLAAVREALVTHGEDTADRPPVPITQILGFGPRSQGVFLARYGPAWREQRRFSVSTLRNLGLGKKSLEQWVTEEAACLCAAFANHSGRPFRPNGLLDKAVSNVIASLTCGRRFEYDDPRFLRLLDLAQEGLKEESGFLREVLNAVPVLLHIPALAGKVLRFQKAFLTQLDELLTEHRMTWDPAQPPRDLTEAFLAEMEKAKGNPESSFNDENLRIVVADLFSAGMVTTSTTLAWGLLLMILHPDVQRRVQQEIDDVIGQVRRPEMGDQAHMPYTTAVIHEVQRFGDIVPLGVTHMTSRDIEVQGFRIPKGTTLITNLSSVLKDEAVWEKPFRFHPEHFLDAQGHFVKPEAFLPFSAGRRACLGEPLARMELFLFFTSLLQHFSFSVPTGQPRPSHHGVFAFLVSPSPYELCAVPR
# assay_protocol: CYP2D6 inhibition, bufuralol 1′-hydroxylation in pooled human liver microsomes
# Type: in vitro ADME
# Set-up: a Human liver microsomes; tissue Corning (Woburn, USA); host or cells: pooled human liver microsomes
# test_parameters: bufuralol 1′-hydroxylation
quantity_kind: Ki (µM)
Could you give me the number in µM? Just the number is fine.

COc1cc(C(C)=O)ccc1OCCCN1CCC(c2noc3cc(F)ccc23)CC1 = 2.9

Now examine the next entry.
Ask | Which measured Ki value corresponds to O=C1[C@@H]2[C@H]3CC[C@H](C3)[C@@H]2C(=O)N1C[C@@H]1CCCC[C@H]1CN1CCN(c2nsc3ccccc23)CC1 ?
Reply | 37.5

###

# system: CYP3A4 (Homo sapiens, UniProt P08684)
# assay_protocol: CYP3A4 inhibition, testosterone 6β-hydroxylation in pooled human liver microsomes
quantity_kind: pKi
To interpret pKi, take it as minus log10 of a concentration measured in moles per litre.

Ask | So what pKi did O=C1[C@@H]2[C@H]3CC[C@H](C3)[C@@H]2C(=O)N1C[C@@H]1CCCC[C@H]1CN1CCN(c2nsc3ccccc23)CC1 get with CYP3A4 (Homo sapiens, UniProt P08684)?
Reply | 4.53

###

# system: CYP2C9 (Homo sapiens, UniProt P11712)
# Construct: purchased Corning (Woburn, USA); host or cells: baculovirus-infected insect cells
# Sequence (P11712 whole entry): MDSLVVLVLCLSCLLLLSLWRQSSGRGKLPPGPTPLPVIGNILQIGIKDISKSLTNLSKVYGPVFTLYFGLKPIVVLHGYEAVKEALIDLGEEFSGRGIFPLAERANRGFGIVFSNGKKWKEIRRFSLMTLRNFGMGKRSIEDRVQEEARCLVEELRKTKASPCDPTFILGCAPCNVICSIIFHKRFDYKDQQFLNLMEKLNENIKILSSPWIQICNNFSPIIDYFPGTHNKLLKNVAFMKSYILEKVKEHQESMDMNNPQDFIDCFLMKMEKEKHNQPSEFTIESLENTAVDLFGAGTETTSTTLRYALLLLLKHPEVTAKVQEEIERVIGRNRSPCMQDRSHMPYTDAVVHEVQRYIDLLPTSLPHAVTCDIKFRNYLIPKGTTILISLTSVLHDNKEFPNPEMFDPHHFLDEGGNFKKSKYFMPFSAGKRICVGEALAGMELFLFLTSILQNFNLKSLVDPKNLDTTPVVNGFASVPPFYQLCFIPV
# assay_protocol: CYP2C9 inhibition, diclofenac 4′-hydroxylation in cDNA-expressed CYP2C9 (supersomes)
# Format: in vitro ADME
# test_parameters: human, pH 7.4, probe diclofenac (4′-hydroxylation); CYP2C9, supersomes, diclofenac 4′-hydroxylation
quantity_kind: Ki at 30 min

Ask | I would be grateful if you could share the reported Ki at 30 min for COc1cc(C(C)=O)ccc1OCCCN1CCC(c2noc3cc(F)ccc23)CC1 [Iloperidone, iloperidone] .
Reply | > 10 µM
